Assignment: determine reported melting point for the given compounds.

Indicate the recorded melting point value for this compound: CCCOc1ncc(NC(=O)N(C)C)cc1-c1nc2c(CCC)nn(C)c2c(=O)[nH]1 [Example 91]
219 to 220 °C

Indicate the recorded melting point value for this compound: CCCOc1ncc(C(C)=O)cc1-c1nc2c(CC)n(C3CN(C(C)C)C3)nc2c(=O)[nH]1 [Example 124]
162.8 to 163.6 °C

Indicate the recorded melting point value for this compound: CCc1c2nc(-c3cc(C(C)=O)cnc3OCC(C)C)[nH]c(=O)c2nn1C1CCN(C)CC1 [Example 135]
195 to 196 °C

Indicate the recorded melting point value for this compound: CCCOC(=O)Nc1cnc(OCCC)c(-c2nc3c(CCC)nn(C)c3c(=O)[nH]2)c1 [Example 94]
210 to 211 °C

Indicate the recorded melting point value for this compound: CCCCOc1ncc(-c2ccco2)cc1-c1nc2c(CC)n(CCOC)nc2c(=O)[nH]1 [Example 12]
154 to 155 °C

Indicate the recorded melting point value for this compound: `CCCOc1ncc(C#C[Si](C)(C)C)cc1-c1nc2c(CC)nn(CCN3CCOCC3)c2c(=O)[nH]1`
132 to 134 °C

Indicate the recorded melting point value for this compound: CCOc1ncc(C(C)=O)cc1-c1nc2c(CC)nn(Cc3nccn3C)c2c(=O)[nH]1 [Example 138]
217.9 to 218.7 °C

Indicate the recorded melting point value for this compound: CCOc1ncc(C(C)=O)cc1-c1nc2c(CC)n(CC3CC3)nc2c(=O)[nH]1 [Example 128]
200 to 201 °C

Indicate the recorded melting point value for this compound: CCCOc1ncc(NS(=O)(=O)CC(=O)O)cc1-c1nc2c(CCC)nn(C)c2c(=O)[nH]1 [Example 80]
267 to 270 °C

----------
recorded.endpoint: melting point

Indicate the recorded melting point value for this compound: CCCOc1ncc(C(C)=O)cc1-c1nc2c(CC)n(C3CNC3)nc2c(=O)[nH]1 [Example 117]
128.5 to 130 °C

Indicate the recorded melting point value for this compound: C#Cc1cnc(OCCC)c(-c2nc3c(CC)n(C4CCN(C(=O)OC(C)(C)C)CC4)nc3c(=O)[nH]2)c1 [Example 112]
221 °C

Indicate the recorded melting point value for this compound: CCCOc1ncc(NCC(=O)OC)cc1-c1nc2c(CCC)nn(C)c2c(=O)[nH]1 [Example 82]
175 °C

Indicate the recorded melting point value for this compound: CCCOc1ncc(NC(=O)CC(=O)O)cc1-c1nc2c(CCC)nn(C)c2c(=O)[nH]1 [Example 79]
261 to 262 °C

Indicate the recorded melting point value for this compound: CCCOc1ncc(C(C)=O)cc1-c1nc2c(CC)n(C3CN(C)C3)nc2c(=O)[nH]1 [Example 120]
175.9 to 177 °C

Indicate the recorded melting point value for this compound: CCCOc1ncc(NC(C)=O)cc1-c1nc2c(CCC)nn(C)c2c(=O)[nH]1 [Example 92]
252 to 253 °C

Indicate the recorded melting point value for this compound: CCCOc1ncc(I)cc1-c1nc2c(CC)nn(CCN3CCOCC3)c2c(=O)[nH]1 [Example 95]
175 to 177 °C

Indicate the recorded melting point value for this compound: CCCOc1ncc(C(C)=O)cc1-c1nc2c(CC)n(C3CN(C(C)CC)C3)nc2c(=O)[nH]1 (centres unmarked) [Example 123]
176.5 to 177.7 °C
